EXPERIMENTAL SYSTEM: T1, NHERF3_4, Q5T2W1
T1 sequence (Q5T2W1 373-468, limits assumed, looked up): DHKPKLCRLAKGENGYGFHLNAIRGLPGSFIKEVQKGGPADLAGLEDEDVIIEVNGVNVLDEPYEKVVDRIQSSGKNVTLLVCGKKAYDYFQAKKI
EXPERIMENT SUMMARY: holdup assay
Design: key: below the threshold = too weak to quantify, mostly under pKd 3.1 to 4
TEST CONDITIONS: plain residues with an end cap or a label only (N-terminal biotin on a linker: ado-ado)
PROPERTY MEASURED: pKd

Some entries whose results are on file:
{"columns": ["BINDER", "pKd"],
 "data": [
  ["TSQESEDTYL [TBC1D10A, Q9BXI6]", 3.48],
  ["TASPAKETSF [SLC2A7, Q6PXP3]", "below the threshold"],
  ["KKAPTNEFYA [SDC4, P31431]", "below the threshold"],
  ["LGRSTPQSEV [DGKH, Q86XP1]", "below the threshold"],
  ["KKMPSIESDV [GRIN2A, Q12879]", "below the threshold"],
  ["TSSMRGMDAV [RSRC2, Q7L4I2]", "below the threshold"],
  ["SKSNFGSEPL [KIF17, Q9P2E2]", "below the threshold"]
]}

The record that follows has no pKd shown yet.
Lookup: Please report the recorded pKd for RRISSLESEV [GRIN2C, Q14957] .
Found: 3.66
